- Test system: DTH reaction to sheep erythrocytes
- Test method notes: Delayed-type hypersensitivity (DTH) reaction to sheep erythrocytes
- Format: in vivo, female NMRI mice
- Cond: single i.p. dose of 40 mg/kg; maximal stimulation by Example 34 = 100%
We label by threshold. Values of Relative stimulation of the DTH reaction strictly beneath 90% are met. Values of 90% and up are not met.

input: A record lists Cc1ccc(C2=NOC(P(C)(=O)O)C2)cc1 (centres unmarked) . Is its Relative stimulation of the DTH reaction below 90%?
output: met

input: A record lists O=P(O)(O)CC1CC(c2ccccc2)=NO1 (centres unmarked) . Is its Relative stimulation of the DTH reaction below 90%?
output: not met

input: A record lists O=P(O)(O)C1CC(c2ccccc2)=NO1 (racemic) . Is its Relative stimulation of the DTH reaction below 90%?
output: not met

input: A record lists O=C(C1=NOC(P(=O)(O)O)C1)c1ccccc1 (centres unmarked) . Is its Relative stimulation of the DTH reaction below 90%?
output: met

input: A record lists CCOP(=O)(O)C1CC(c2ccccc2)=NO1 (centres unmarked) . Is its Relative stimulation of the DTH reaction below 90%?
output: not met

====

- Test method notes: Acute toxicity
- Design: species or system mice
- Cond: mouse, in vivo, ip, single dose, mortality within 7 days
Hi there, I'd appreciate the recorded LD50 at 168 h for every entry that follows.

Solved cases (2 shown):
Br.CN(C)c1ccc(C2=NOC(P(=O)(O)O)C2)cc1 (centres unmarked) ... 150 to 300 mg/kg
O=P(O)(O)C1CC(c2ccccc2O)=NO1 (centres unmarked) ... 150 to 300 mg/kg

State recorded LD50 at 168 h for all listed compounds.
1. O=P(O)(O)CC1CC(c2ccccc2)=NO1 (centres unmarked)
2. COP(=O)(OC)C1CC(c2ccccc2)=NO1 (racemic)
3. COP(=O)(OC)C1CC(c2ccc(F)cc2)=NO1 (centres unmarked)

output:
1. 600 to 1200 mg/kg
2. 300 to 600 mg/kg
3. > 300 mg/kg

====

- Tested on: leucine aminopeptidase
- Test method notes: Inhibition of leucine aminopeptidase
- Format: biochemical
- Cond: substrate L-leucine 4-nitroanilide
- Procedure: The activity of the enzyme aminopeptidase B was determined photometrically using the substrate L-lysine 2-naphthylamide at room temperature. […] In the same way, the inhibition of leucine aminopeptidase was investigated using L-leucine 4-nitroanilide as enzyme substrate. The IC50 values are compiled in Table 6.
Hi there, I'd appreciate the recorded Leucine aminopeptidase IC50 for every entry that follows.
Answers are plain numbers, in μug/ml.

Br.CN(C)c1ccc(C2=NOC(P(=O)(O)O)C2)cc1 (centres unmarked) ... 37
O=P(O)(O)C1CC(c2ccccc2)=NO1 (single isomer, unassigned; (+)) [Example 61] ... 26
O=P(O)(O)C1CC(c2ccccc2)=NO1 (racemic) [Example 34] ... 24
O=P(O)(O)C1CC(c2ccc(F)cc2)=NO1 (centres unmarked) ... 57

Next, consider the following compound.
input: Specify the recorded Leucine aminopeptidase IC50 for O=P(O)(O)C1CC(c2ccccc2)=NO1 (centres unmarked) [Example 35] , system: leucine aminopeptidase.
output: 57

====

- Tested on: active Arthus reaction
- Test method notes: Active Arthus reaction in the rat
- Format: in vivo, Sprague-Dawley rats
- Cond: Rattus norvegicus, po, 4 h, oral dose 35 mg/kg, 4 h after ovalbumin challenge; read-out: Active Arthus reaction % change
Hi there, I'd appreciate the recorded change in vivo at 35 mg/kg for every entry that follows.
Answers are plain numbers, in %.

O=P(O)(O)C1CC(c2ccccn2)=NO1 (stereo not shown) ... -33
O=P(O)(O)C1CC(c2ccccc2O)=NO1 (stereo not shown) ... -44
CP(C)(=O)C1CC(c2ccccc2)=NO1 (stereo not shown) ... -34
O=P(O)(O)C1CC(c2ccccc2)=NO1 (racemic) [Example 34] ... -16
CP(C)(=O)C1CC(c2ccccn2)=NO1 (stereo not shown) ... -23
O=C(O)c1ccc(C2=NOC(P(=O)(O)O)C2)cc1 (stereo not shown) ... -29

input: Give a short answer stating reported change in vivo at 35 mg/kg for O=P(O)(O)C1CC(c2ccccc2)=NO1 (stereo not shown) [Example 35] .
output: -16
